Tested on: HCC-2998 colon
Test: NCI tumour cell line growth inhibition, 48 h
Exercise: for every item that follows, state its recorded GI50.

Solved entries (count: 2):
>  <COMPOUND>
COc1cccc2c(=O)c3c(sc12)c(NCCCNCCO)nc1ccccc13

>  <MEASURE>
GI50

>  <VALUE_REPORTED>
1.59 µM

$$$$
>  <COMPOUND>
CC(=Nc1ccc(S(N)(=O)=O)cc1)c1c(O)[nH]c2ccccc12

>  <MEASURE>
GI50

>  <VALUE_REPORTED>
> 25 µM

$$$$

Go through the list and state GI50 for each entry.
1. CC1c2ccccc2N=C2SC(=S)N3CCN=C3N21 (stereo not given)
2. CCOc1ccc(Nc2c3ccccc3nc3ccccc23)cc1
3. COc1ccc(Nc2nccc(N3CCN(c4c5ccc(Cl)cc5nc5ccc(OC)cc45)CC3)n2)cc1

Outgoing:
["> 100 µM", "0.816 µM", "23.5 µM"]

====

System: CCRF-CEM leukemia
Test: NCI tumour cell line growth inhibition, 48 h
Provide the recorded TGI for the entries that follow.

The following molecules have reported results that may help.
>  <MOLECULE>
CCOC(=O)NC(Nc1c(F)c(F)c(F)c(F)c1F)(C(F)(F)F)C(F)(F)F

>  <MEASURE>
TGI

>  <VALUE_REPORTED>
> 100 µM

$$$$
>  <MOLECULE>
O=C(O)/C=C\C(=O)Nc1ccc(S(=O)(=O)c2ccc(NC(=O)/C=C\C(=O)O)cc2)cc1

>  <MEASURE>
TGI

>  <VALUE_REPORTED>
> 100 µM

$$$$
>  <MOLECULE>
C/C1=C\CC[C@@](C)(O)[C@@H]2C[C@H](CC/C(C)=C/CC1)C1(CC1)C(=O)O2

>  <MEASURE>
TGI

>  <VALUE_REPORTED>
> 100 µM

$$$$
>  <MOLECULE>
COc1ccc(NC(C)c2ccncc2)cc1 (stereo not given)

>  <MEASURE>
TGI

>  <VALUE_REPORTED>
> 100 µM

$$$$
>  <MOLECULE>
C=C1C(=O)C23C(O)C1CC[C@H]2C12CCCC(C)(COC(C)=O)[C@H]1[C@H](O)[C@]3(O)OC2 (stereo not given in full)

>  <MEASURE>
TGI

>  <VALUE_REPORTED>
1.16 µM

$$$$

Provide the reported TGI of each entry below, same order.
1. COc1cccc(COc2cc(-n3cnc4ccccc43)sc2C(N)=O)c1
2. O=C1c2ccccc2-c2c1c1c(NCCCO)nc3ccccc3c1n2Cc1ccccc1
3. COc1ccc(Oc2cnn(C(Br)(Br)C(C)=O)c(=O)c2Br)cc1
4. CCNCCNc1cc(-c2ccc(C#N)cc2)c(C#N)c2nc3ccccc3n12
5. Cc1cccc(/C(Br)=C2/OC(=O)c3ccccc32)c1

Outgoing:
1: > 25 µM; 2: 45.9 µM; 3: 4.57 µM; 4: 9.9 µM; 5: > 100 µM

====

Kindly state TGI for each of the entries shown.
System: HOP-62 NSCLC
Experiment: NCI tumour cell line growth inhibition, 48 h

Reference set, count: 3
>  <COMPOUND>
CC1c2ccccc2N=C2SC(=S)N3CCN=C3N21 (stereo not given)

>  <VALUE_REPORTED>
> 100 µM

$$$$
>  <COMPOUND>
O=c1[nH]c2cc([N+](=O)[O-])ccc2nc1/C(=N\Nc1ccccc1)C(O)c1ccc2c(c1)OCO2 (stereo not given)

>  <VALUE_REPORTED>
> 100 µM

$$$$
>  <COMPOUND>
CC(=O)[CH-]C(=O)c1ccccc1.CC(=O)[CH-]C(=O)c1ccccc1.CC1(C)OCC(C2OC3OC(C)(C)OC3C2[O-])O1.CC[O-].[Ti+4] (stereo not given)

>  <VALUE_REPORTED>
31.1 µM

$$$$

Record TGI per entry; entries follow.
1. S=C1NC2=C(CSC/C2=C\c2ccccc2)C(c2ccccc2)N1 (stereo not given)
2. c1ccc2[nH]c(CNc3ccc(C4C[Se]N=N4)cc3)nc2c1 (stereo not given)
3. COc1ccc(Oc2cnn(C(Br)(Br)C(C)=O)c(=O)c2Br)cc1

Outgoing:
> 100 µM
> 100 µM
35.5 µM

Please go through the list and note TGI for each compound.
1. Cc1cc(NS(=O)(=O)c2ccc(NC(NC(=O)C(C(F)(F)F)C(F)(F)F)(C(F)(F)F)C(F)(F)F)cc2)no1
2. O=C1c2cccc(O)c2C(=O)c2c(O)cc(CO)cc21

Outgoing:
["> 100 µM", "> 100 µM"]

The following compounds each have a reported value; give each one's TGI.
1. CN(C)c1ccc(Cc2cc3c(O)ccc(O)c3cc(Cc3ccc(N(C)C)cc3)c2=O)cc1
2. CC1(C)CC(=O)C(CC2C(=O)c3ccccc3C2=O)C(=O)C1

Outgoing:
> 100 µM
> 100 µM

====

Hi there, I'd appreciate the recorded TGI for every entry that follows.
Test system: OVCAR-3 ovarian
Assay: NCI tumour cell line growth inhibition, 48 h

>  <COMPOUND>
c1ccc(C2CC(=NC3CCCCC3)Nc3ccccc3N2)cc1 (stereo not drawn)

>  <TGI>
> 100 µM

$$$$
>  <COMPOUND>
CC1c2ccccc2N=C2SC(=S)N3CCN=C3N21 (stereo not drawn)

>  <TGI>
> 100 µM

$$$$
>  <COMPOUND>
[2H]c1nc(=Nc2cc(NC(=O)C=C)c(N(C)CCN(C)C)cc2OC)[nH]c(-c2cn(C([2H])([2H])[2H])c3ccccc23)c1[2H]

>  <TGI>
2.83 µM

$$$$
>  <COMPOUND>
Cc1cccc(N=Nc2ccc(N=Nc3c(O)ccc4ccccc34)cc2C)c1

>  <TGI>
> 100 µM

$$$$

Hey, can you go through the list below and give me TGI for every item?
1. CCn1c(-c2nonc2N)nc2ccncc21
2. Fc1ccc2nc(-c3cc(-c4ccc5c(c4)OCO5)n[nH]3)[nH]c2c1
3. COc1ccc(/C=N/n2c(C)nc3c(sc(=S)n3-c3ccccc3)c2=O)cc1
4. Cc1ccccc1/C=C/C(=O)c1ccccc1
5. Cc1ccc(NC(=O)/C(Cc2nc3ccc([N+](=O)[O-])cc3[nH]c2=O)=N\NC(=O)C[n+]2ccccc2)c(C)c1

Outgoing:
["> 25 µM", "18.3 µM", "> 100 µM", "31 µM", "59.3 µM"]

====

Test system: UO-31 renal
Test: NCI tumour cell line growth inhibition, 48 h
MEASURE: log10(TGI) (log10 of the value in µM)
Please be aware that the numbers have been log10-transformed from TGI in µM.

Use the examples below as a reference point.
>  <COMPOUND>
Cc1ccc2oc(=O)c(-c3ccccc3)nc2c1

>  <log10(TGI)>
1.98

$$$$
>  <COMPOUND>
CC1OC(c2ccc3c(c2O)C(=O)C2=C(C3=O)C3(O)C(=O)CC(C)(O)CC3(O)C=C2)CC(O)C1O (stereo not given)

>  <log10(TGI)>
1.57

$$$$

Dear colleague, could you please provide log10(TGI) for the compounds listed below?
1. CC(C)[O-].CC(C)[O-].CN(CCN(C)Cc1cc(F)cc(F)c1[O-])Cc1cc(F)cc(F)c1[O-].[Ti+4]
2. N#C/C(=C1\SC(N=Nc2ccc(Cl)cc2)C(=O)N1c1ccccc1)c1nc2ccccc2[nH]1 (stereo not given)
3. CC(C)Oc1ccc(C(=O)Cn2ccnc2)cc1-n1c(CN2CCN(C(=O)COc3ccc(Cl)cc3)CC2)nc2ccccc2c1=O
4. COc1ccc2c(NCCCCCCNc3c4ccccc4nc4cc(OC)ccc34)c3ccccc3nc2c1

Outgoing:
1: 0.74; 2: 1.60; 3: 0.47; 4: 1.57

Provide the reported log10(TGI) of each entry below, same order.
1. COc1cc2nc(-c3ccc(C(F)(F)F)cc3)cc(OCCCN3CCCC3)c2cc1OC
2. O=C(c1cccs1)C1NO[N+]([O-])=C1c1cccs1 (stereo not given)
3. COc1ccc([C@H]2C=[N+]([O-])O[C@H](OC3CCCC3)[C@@H]2OC(C)=O)cc1OC

Outgoing:
1.15
0.17
1.61

====

System: T-47D breast
Assay: NCI tumour cell line growth inhibition, 48 h
MEASURE: TGI

Completed entries (count: 5):
>  <MOLECULE>
COc1cc2[nH]c(-c3ccccc3)cc(=O)c2c(OC)c1OC

>  <TGI>
> 100 µM

$$$$
>  <MOLECULE>
COC1C(O)C(O[C@H]2CC[C@@]3(C)C(CC[C@@H]4[C@@H]3CC[C@]3(C)[C@@H](C(C)OC5OC(CO)C(O)C(O)C5O)CC[C@]43O)C2)OC(C)C1OC1OC(CO)C(O)C(O)C1O (some centres undefined)

>  <TGI>
> 100 µM

$$$$
>  <MOLECULE>
COC(=O)C1(O)C(c2ccccc2)=NC2(C)CCCC21 (centres undefined)

>  <TGI>
> 100 µM

$$$$
>  <MOLECULE>
CCn1c(-c2nonc2N)nc2ccncc21

>  <TGI>
> 25 µM

$$$$
>  <MOLECULE>
COc1ccc(C(=O)c2nc3ccccc3n2CC(=O)c2ccc(Cl)cc2)cc1

>  <TGI>
> 100 µM

$$$$

Please look at the items below and tell me TGI for each one, in order.
1. CN1N=C(c2ccncc2)OC1c1ccccc1F (centres undefined)
2. O=C1/C(=C/c2cccc([N+](=O)[O-])c2)Sc2scc(-c3ccc([N+](=O)[O-])cc3)[n+]21
3. COc1ccc2[nH]c(-c3ccc(O)cc3)cc(=O)c2c1
4. COc1cccc2c(=O)c3c(sc12)c(NCCCNCCO)nc1ccccc13

Outgoing:
["> 100 µM", "> 100 µM", "79.6 µM", "3.48 µM"]

The following molecules each have a reported value; give each one's TGI.
1. COc1cc2nc(-c3ccc(C(F)(F)F)cc3)cc(OCCCN3CCCC3)c2cc1OC
2. CC1(C)OC2COC3([C@@H]4OC(C)(C)O[C@@H]4CO)OC(C)(C)OC3C2O1 (some centres undefined)

Outgoing:
["15.9 µM", "> 100 µM"]

I'm hoping you can list TGI for every molecule here, please.
1. O=C1C(C(O)(C(F)(F)F)C(F)(F)F)CCC1C(O)(C(F)(F)F)C(F)(F)F (centres undefined)
2. C[C@]12CC[C@@H]3c4ccc(O)cc4CC[C@H]3[C@@H]1C/C(=C\c1ccc(C#N)cc1)C2=O
3. COP(=O)(OC)C(Nc1ccc(Cc2ccc(NC(c3ccco3)P(=O)(OC)OC)cc2)cc1)c1ccco1 (centres undefined)
4. O=C(CC(=O)Nc1ccccc1)NNC(c1cc(N=Nc2ccc(Br)cc2)ccc1O)P(O)O (centres undefined)

Outgoing:
["2.13 µM", "> 100 µM", "> 100 µM", "> 10 µM"]

List the reported TGI of each molecule below.
1. CC(=Nc1ccc(S(N)(=O)=O)cc1)c1c(O)[nH]c2ccccc12
2. CC(C)C1=C(O)C2=C(C(=O)C1=O)C1(C)CCCC(C)(C)C1C(O)C2OC=O (centres undefined)
3. O=C(c1cccs1)C1NO[N+]([O-])=C1c1cccs1 (centres undefined)
4. Cc1cc(C)nc(NS(=O)(=O)c2ccc(NC(=O)c3cccc4c(NNc5ccc(S(=O)(=O)N=C(N)N)cc5)c5ccccc5nc34)cc2)n1
5. Clc1ccc(/C(=C\c2ccccc2)Cn2ccnc2)cc1
6. O=C1c2ccccc2-c2c1c1c(NCCCO)nc3ccccc3c1n2Cc1ccccc1
7. O=C1/C(=C/c2ccc([N+](=O)[O-])cc2)COc2ccc(O)cc21
8. C[C@H]1OC(=O)[C@@H]2N=NN(Cc3ccccc3)[C@H]12

Outgoing:
1: > 25 µM; 2: 27.9 µM; 3: 5.09 µM; 4: > 50 µM; 5: 69.9 µM; 6: 46.4 µM; 7: > 100 µM; 8: > 100 µM

Consider the following items and state reported TGI for each.
1. Clc1nncc2sc(-c3ccccc3)nc12
2. CC(C)Oc1ccc(C(=O)Cn2ccnc2)cc1-n1c(CN2CCN(C(=O)COc3ccc(Cl)cc3)CC2)nc2ccccc2c1=O
3. O=C(OCC1OC(n2nc(Cn3nnc(-c4cccnc4)n3)n(-c3cccc4ccccc34)c2=S)C(OC(=O)c2ccccc2)C1OC(=O)c1ccccc1)c1ccccc1 (centres undefined)
4. CC1OC(c2ccc3c(c2O)C(=O)C2=C(C3=O)C3(O)C(=O)CC(C)(O)CC3(O)C=C2)CC(O)C1O (centres undefined)
5. CN1c2ccccc2SC2C(c3ccccc3)=NOC21 (centres undefined)
6. O=C1c2cccc3cccc(c23)C(=O)N1O

Outgoing:
1. > 100 µM
2. > 95.4 µM
3. > 100 µM
4. 28.3 µM
5. 94.3 µM
6. > 100 µM

Record TGI for all entries; do not skip any.
1. [2H]c1nc(=Nc2cc(NC(=O)C=C)c(N(C)CCN(C)C)cc2OC)[nH]c(-c2cn(C([2H])([2H])[2H])c3ccccc23)c1[2H]
2. C=CC(=O)N1C/C(=C\c2ccc(Cl)cc2)C(=O)/C(=C/c2ccc(Cl)cc2)C1
3. C(=C\c1ccccc1)/COc1ccccc1C(N1CCOCC1)n1nc2ccccc2n1 (centres undefined)
4. O=[N+]([O-])/C(Cl)=C(\NCCN/C(C(Cl)=C(Cl)Cl)=C(/Cl)[N+](=O)[O-])C(Cl)=C(Cl)Cl
5. CC#CC(O)(C(=O)OC1CC(C)N(C)C(C)(C)C1)C1CCCC1 (centres undefined)
6. O=C(O)c1ccccc1C(=O)c1ccc2c(c1)Cc1ccccc1-2

Outgoing:
1: 2.83 µM; 2: 6.85 µM; 3: 43.8 µM; 4: > 100 µM; 5: > 100 µM; 6: > 100 µM

Hey, quick one: what's TGI for each of these?
1. CN(C)CCCNC(=O)c1c(O)c2ccccc2n(C)c1=O
2. O=C(CC(C(=O)c1ccco1)c1ccco1)c1ccco1 (centres undefined)
3. COc1ccc(Nc2nccc(N3CCN(c4c5ccc(Cl)cc5nc5ccc(OC)cc45)CC3)n2)cc1
4. O=C(/C=C/c1ccc2c(c1)OCO2)Cc1nc2ccccc2[nH]c1=O

Outgoing:
["> 100 µM", "> 100 µM", "44.7 µM", "34.2 µM"]
